system.name: Rat recombinant PDE10a (rPDE10a) (Rattus norvegicus (Rat), UniProt Q9QYJ6)
Sequence (Q9QYJ6 whole entry): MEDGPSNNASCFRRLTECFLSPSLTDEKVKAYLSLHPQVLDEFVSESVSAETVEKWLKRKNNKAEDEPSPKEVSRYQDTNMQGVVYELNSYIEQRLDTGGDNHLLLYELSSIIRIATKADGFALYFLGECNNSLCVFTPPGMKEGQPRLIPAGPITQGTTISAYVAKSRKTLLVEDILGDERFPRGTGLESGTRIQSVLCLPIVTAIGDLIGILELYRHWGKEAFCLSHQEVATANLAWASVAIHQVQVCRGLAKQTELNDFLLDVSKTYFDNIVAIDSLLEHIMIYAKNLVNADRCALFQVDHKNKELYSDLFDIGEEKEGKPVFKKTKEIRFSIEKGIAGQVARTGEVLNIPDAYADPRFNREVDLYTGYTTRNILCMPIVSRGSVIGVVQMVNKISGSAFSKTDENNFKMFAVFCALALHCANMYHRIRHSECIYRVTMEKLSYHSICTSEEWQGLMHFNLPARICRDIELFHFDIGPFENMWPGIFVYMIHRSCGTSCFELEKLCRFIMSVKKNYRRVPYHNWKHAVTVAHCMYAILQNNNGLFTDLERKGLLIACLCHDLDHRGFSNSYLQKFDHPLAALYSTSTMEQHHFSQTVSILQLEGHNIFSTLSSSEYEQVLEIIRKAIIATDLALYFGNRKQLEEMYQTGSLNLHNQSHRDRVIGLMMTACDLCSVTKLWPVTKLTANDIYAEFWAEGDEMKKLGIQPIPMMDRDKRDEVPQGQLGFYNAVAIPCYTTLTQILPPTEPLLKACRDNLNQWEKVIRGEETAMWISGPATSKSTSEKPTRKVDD
procedure.summary: In vitro assay PDE10a (rat recombinant PDE10a, SPA)
run.conditions: 60 nM cAMP, 60 min at rt, read-out: rPDE10a2 IC50
Counter-ions that a name gives are not always drawn.
readout.type: IC50 (nM)

INSERT INTO results (molecule, system_name, censoring_operator, data_value) VALUES
  ('O=C(O)CCNC(=O)c1ccc(-c2cnc(N3CCOCC3)c3nc(CCc4ccc5ccccc5n4)cn23)cc1', 'Rat recombinant PDE10a (rPDE10a) (Rattus norvegicus (Rat), UniProt Q9QYJ6)', '=', 7),
  ('OC1CCN(c2ncc(-c3ccc(N4CCNCC4)nc3)n3cc(COc4ccc5ccccc5n4)nc23)CC1 [Cpd 118, trifluoroacetic acid salt]', 'Rat recombinant PDE10a (rPDE10a) (Rattus norvegicus (Rat), UniProt Q9QYJ6)', '=', 30),
  ('CN(C)c1ccc(-c2cnc(N3CCOCC3)c3nc(COc4ccc5ccccc5n4)cn23)cn1', 'Rat recombinant PDE10a (rPDE10a) (Rattus norvegicus (Rat), UniProt Q9QYJ6)', '=', 30),
  ('COc1cc(-c2ncc(-c3ccc(N4CCNCC4)nc3)n3cc(COc4ccc5ccccc5n4)nc23)ccn1', 'Rat recombinant PDE10a (rPDE10a) (Rattus norvegicus (Rat), UniProt Q9QYJ6)', '=', 245),
  ('NS(=O)(=O)c1ccc(-c2cnc(N3CCOCC3)c3nc(COc4ccc5ccccc5n4)cn23)cc1', 'Rat recombinant PDE10a (rPDE10a) (Rattus norvegicus (Rat), UniProt Q9QYJ6)', '=', 2),
  ('c1ccc2nc(OCc3cn4c(-c5ccc(N6CCNCC6)nc5)cnc(C5CCOCC5)c4n3)ccc2c1 [compound 83, trifluoroacetic acid salt]', 'Rat recombinant PDE10a (rPDE10a) (Rattus norvegicus (Rat), UniProt Q9QYJ6)', '=', 269),
  ('c1ccc2nc(CCc3cn4c(-c5ccc(-c6nnc[nH]6)nc5)cnc(N5CCOCC5)c4n3)ccc2c1', 'Rat recombinant PDE10a (rPDE10a) (Rattus norvegicus (Rat), UniProt Q9QYJ6)', '=', 4),
  ('O=C(O)[C@@H]1CCCN1C(=O)c1ccc(-c2cnc(N3CCOCC3)c3nc(CCc4ccc5ccccc5n4)cn23)cc1 [Cpd 35, trifluoroacetic acid salt]', 'Rat recombinant PDE10a (rPDE10a) (Rattus norvegicus (Rat), UniProt Q9QYJ6)', '=', 12),
  ('CC(=O)NS(=O)(=O)c1ccc(-c2cnc(N3CCOCC3)c3nc(CCc4ccc5ccccc5n4)cn23)cc1', 'Rat recombinant PDE10a (rPDE10a) (Rattus norvegicus (Rat), UniProt Q9QYJ6)', '<', 1),
  ('c1ccc2nc(OCc3cn4c(-c5ccc(N6CCOCC6)nc5)cnc(N5CCOCC5)c4n3)ccc2c1', 'Rat recombinant PDE10a (rPDE10a) (Rattus norvegicus (Rat), UniProt Q9QYJ6)', '=', 11),
  ('O=C1NS(=O)(=O)c2ccc(-c3cnc(N4CCOCC4)c4nc(/C=C/c5ccc6ccccc6n5)cn34)cc21', 'Rat recombinant PDE10a (rPDE10a) (Rattus norvegicus (Rat), UniProt Q9QYJ6)', '=', 2),
  ('C1=C(c2ccc(-c3cnc(N4CCOCC4)c4nc(COc5ccc6ccccc6n5)cn34)cn2)CCNC1', 'Rat recombinant PDE10a (rPDE10a) (Rattus norvegicus (Rat), UniProt Q9QYJ6)', '=', 23);

# credit: patent US9249163B2
